- assay.text: Antioxidant activity of the compound assessed as reduction in absorbance of DPPH after 60 mins incubation at 300 uM by DPPH radical scavenging /microplate assay
- Assay type: physicochemical
- protocol.conditions: 1 h
outcome.measure: inhibition (INH)
Report as: number unit

1. O=C(N/N=C/c1cc(O)cc(O)c1)c1ccc(O)cc1    26.5%

What measured inhibition (INH) goes with COc1ccc(/C=C/C=N/NC(=O)c2ccc(O)cc2)cc1 ?
-2.6%

Now consider CC(C)(C)c1ccc(C(=O)N/N=C/c2cc(O)cc(O)c2)cc1 .
20.1%

Now consider Oc1ccc(/C=C/c2cc(O)cc(O)c2)cc1 [RESVERATROL] .
71.3%
